In this section we review reported TGI values for a set of compounds.
- System: IGROV1 ovarian
- PROTOCOL DETAILS: NCI tumour cell line growth inhibition, 48 h

COMPOUND | TGI
O=C(CC(=O)Nc1cccc(C(=O)O)c1)Nc1cccc(C(=O)O)c1 | > 100 µM
CNc1ccc(OC)cc1S(=O)(=O)c1ccccc1[N+](=O)[O-] | > 100 µM
Nc1nc(N)c2[nH]c(CNc3ccc(C(=O)O)cc3)nc2n1 | > 100 µM
O=NN(CCCl)C(=O)NC1CCSc2ccccc21 (stereo not drawn) | > 100 µM
C=CCNC1=C2C[C@@H](C)C[C@@H](OC)[C@H](OC(=O)CCCCN)[C@H](C)/C=C(\C)[C@@H](OC(N)=O)[C@H](OC)/C=C\C=C(/C)C(=O)NC(=CC1=O)C2=O | 28.6 µM

Problem: Reported TGI for CC(C)(C)C(=O)OCOP(=O)(OCOC(=O)C(C)(C)C)C1CCCN(O)C1=O (stereo not drawn) : what is it?
Solution: 2.73 µM

Problem: Ok, now `O=C(OC(=O)n1ccc2ccccc21)n1ccc2ccccc21`
Solution: > 100 µM

Problem: Ok, now `COC(=O)C1=C(c2ccc3c(c2)OCO3)O[C@H](c2cc(OC)c(OC)c(OC)c2)[C@H]1COC(C)=O`
Solution: 81 µM

====

In this section we review reported TGI values for a set of compounds.
- System: COLO 205 colon
- PROTOCOL DETAILS: NCI tumour cell line growth inhibition, 48 h

Problem: Reported TGI for `O=C1OC(c2ccccc2)=N/C1=C/C=C/c1ccco1` : what is it?
Solution: > 100 µM

Problem: Ok, now COc1ccccc1C1C(C(=O)O)=C(CO)Oc2cc3c(cc21)OCO3 (stereo unspecified)
Solution: > 100 µM

Problem: Ok, now COC(=O)C(C(=O)C(=O)Nc1cccc(OC)c1)c1cnc2ccccc2n1 (stereo unspecified)
Solution: > 100 µM

Problem: Ok, now `O=S1(=O)OCCOS(=O)(=O)C1F`
Solution: > 100 µM

Problem: Ok, now `CCOc1nc(-c2ccccc2)cc2c(O)c(-c3nnco3)[nH]c(=O)c12`
Solution: > 100 µM

====

- System: RPMI-8226 leukemia
- PROTOCOL DETAILS: NCI tumour cell line growth inhibition, 48 h
MEASURED METRIC: TGI

Examples with their reported TGI follow.
COMPOUND | VAL
O=C1N=c2ccccc2=C1c1c(O)[nH]c2ccccc12 | > 100 µM
CC(C)=C[C@@H]1C[C@H](C)[C@H]2CC[C@H](C)C3=C2[C@](O)(OC3=O)[C@]1(C)O | > 100 µM
CC1=C(C#N)C(C#N)(C#N)C(NN(C)C)C1 (stereo not given) | 35.9 µM
O=NN(CCCl)C(=O)NC1CCSc2ccccc21 (stereo not given) | > 100 µM

Next item in the queue.
Problem: Reported TGI for CC(=O)NC1C(OCc2ccccc2)OC(CO)C(O)C1OC(C)C(=O)NC(C)C(=O)NC(CCC(=O)NCCCNc1c2ccccc2nc2cccc([N+](=O)[O-])c12)C(N)=O (stereo not given) : what is it?
Solution: > 100 µM

====

- Tested on: A549 NSCLC
- PROTOCOL DETAILS: NCI tumour cell line growth inhibition, 48 h
In this section we review reported TGI values for a set of molecules.

Examples with their reported TGI follow.
MOLECULE | TGI
O=[N+]([O-])c1ccccc1S(=O)(=O)c1cc(Cl)cc2c1NCCC2 | > 100 µM
CCCCCCCCCC/C=C/CC(=O)SCCNC(=O)CCNC(=O)[C@@H](O)C(C)(C)COP(=O)(O)OP(=O)(O)OCC1OC(n2cnc3c(N)ncnc32)C(O)C1OP(=O)(O)O (stereo partly drawn) | > 10 µM
O=c1nc2occc2cn1C1CC(O)C(CO)O1 (stereo not drawn) | > 100 µM
CS(=O)(=O)Nc1ccc(N2Cc3cnc4ccc5[nH]ccc2c5c34)cc1 | > 100 µM
CC(=O)NC1C(OCc2ccccc2)OC(CO)C(O)C1OC(C)C(=O)NC(C)C(=O)NC(CCC(=O)NCCCNc1c2ccccc2nc2cccc([N+](=O)[O-])c12)C(N)=O (stereo not drawn) | 11.6 µM

Problem: Reported TGI for `O=C(c1ccccc1)c1cc(Cl)ccc1OCCCCN1CCN(CCCCOc2ccc(Cl)cc2C(=O)c2ccccc2)CC1` : what is it?
Solution: 20.9 µM

Problem: Ok, now `Ic1ccc(Nc2nc3nonc3nc2Nc2ccc(I)cc2)cc1`
Solution: > 100 µM

Problem: Ok, now `C[N+](C)([O-])CCC=C1c2ccccc2CCc2ccccc21`
Solution: > 100 µM

Problem: Ok, now `CCc1nc(N)nc(N)c1-c1ccc(Cl)c(Cl)c1`
Solution: > 100 µM

Problem: Ok, now `CNn1c(-c2ccccc2)n[nH]c1=O`
Solution: > 100 µM

Problem: Ok, now `CCN1CCN(c2ccc(Nc3cc(N(C)C(=O)Nc4c(Cl)c(OC)cc(OC)c4Cl)ncn3)cc2)CC1`
Solution: 12.1 µM

====

- System: NCI/ADR-RES ovarian
- PROTOCOL DETAILS: NCI tumour cell line growth inhibition, 48 h
MEASURED METRIC: TGI

Examples with their reported TGI follow.
MOLECULE | TGI
NC(Cc1cccc([N+](=O)[O-])c1)C(=O)O (centres undefined) | > 100 µM
CC(=O)Nc1cc(C(=O)Nc2cc(C(=O)N3CC(CCl)c4c3cc(N)c3ccccc43)nn2C)nn1C (centres undefined) | 7.49 µM
COc1ccc(C2CC(c3cccc(Nc4ccncc4)c3)=NN2c2cc(Cl)cc(Cl)c2)cc1 (centres undefined) | 3.27 µM
COc1ccc(/C=C(/C(=O)c2ccc(Cl)cc2)N2C=CC=CC2=C(C#N)C#N)cc1OC | 44.9 µM
COCCOc1cc(F)c2c(Nc3ccc(NC(=O)Cn4cc(C(C)C)nn4)cc3)ncnc2c1 | > 100 µM
O=C(CC(=O)Nc1cccc(C(=O)O)c1)Nc1cccc(C(=O)O)c1 | > 100 µM
O=C(OC(=O)n1ccc2ccccc21)n1ccc2ccccc21 | > 100 µM
O=C(O)c1n[nH]nc1Cl | > 100 µM

Next item in the queue.
Problem: So what TGI did `OCCN1CN(CCO)CN(c2nc(N3CN(CCO)CN(CCO)C3)nc(N3CN(CCO)CN(CCO)C3)n2)C1` get with NCI/ADR-RES ovarian?
Solution: 3.98 ng/mL

====

- System: HL-60(TB) leukemia
- PROTOCOL DETAILS: NCI tumour cell line growth inhibition, 48 h; in the data active means GI50 below about 0.43 µM; inactive means the rest
Thanks in advance; please answer with one of these: active, inactive

Illustrative cases are given below, each with its answer.
COMPOUND | LABEL VALUE
C[As](C)SC1OC(CO)C(O)C1O (stereo not drawn) | inactive
CNCCNc1c2c(c(NCCNC)c3c(CN(C)C)c[nH]c13)C(=O)c1ccccc1C2=O | inactive
CC(=O)O.CC(=O)O.CC(=O)O.CC(=O)O.CC(=O)O.CC(=O)O.O.[Ti].[Ti] | inactive
Cc1ccc(C(SCC(N)C(=O)O)(c2ccccc2)c2ccc(C)cc2)cc1 (stereo not drawn) | active
NC(=NCCCOc1ccc(Cl)cc1)Nc1ccc(C(F)(F)F)cc1 | inactive
COCCOc1cc(F)c2c(Nc3ccc(NC(=O)Cn4cc(C(C)C)nn4)cc3)ncnc2c1 | inactive

Problem: Would you mind telling me which call this test gave `COc1ccc(N(C)c2ncnc3occ(C)c23)cc1` ?
Solution: active

Problem: Ok, now COc1ccc(N2C(=O)C(c3ccccc3)(c3ccccc3)C23C(=O)N(C)c2ccccc23)cc1 (stereo not drawn)
Solution: inactive

====

- Tested on: RXF 393 renal
- PROTOCOL DETAILS: NCI tumour cell line growth inhibition, 48 h; in the data active = GI50 below about 0.43 µM; inactive = the rest
Thanks in advance; please answer with one of these: Yes (active), No (inactive)

Illustrative cases are given below, each with its answer.
MOLECULE | LABEL VALUE
CC(C)=C[C@@H]1C[C@H](C)[C@H]2CC[C@H](C)C3=C2[C@](O)(OC3=O)[C@]1(C)O | No
CC(=O)OC1Oc2ccccc2-c2oc(=O)c(-c3cc(=O)oc4cc(O)ccc34)cc21 (stereo not given) | No
COc1ccc2c(c1)C(C)Cc1c(Cl)ncnc1N2C (stereo not given) | Yes

Problem: Would you mind telling me which call this test gave `Cc1nc(N)sc1-c1ccnc(Nc2ccc(N3CCOCC3)cc2)n1` ?
Solution: No

Problem: Ok, now `C/C(=C\CCc1ccoc1)CC/C=C(\C)CCCC1=CC(=O)OC1`
Solution: No

Problem: Ok, now CC(O)C(N=Cc1ccccc1[O-])C(=O)[O-].CC(O)C(N=Cc1ccccc1[O-])C(=O)[O-].[Co+2] (stereo not given)
Solution: No

====

- Tested on: MDA-MB-231 breast
- PROTOCOL DETAILS: NCI tumour cell line growth inhibition, 48 h
In this section we review reported TGI values for a set of molecules.
Answer with a number only, understood to be in µM.

SMILES STR | UNITS LABEL | VAL
Cc1nc2ccccc2c(=O)n1NC(=O)c1ccc(CS)cc1 | µM | 84.6

Problem: So what TGI did `Cc1c2cccnc2c(C)c2c1c1cc(CO)ccc1n2C` get with MDA-MB-231 breast?
Solution: 13.2

Problem: Ok, now `CCCCCN=Cc1c(O)c(O)c(C(C)C)c2cc(C)c(-c3c(C)cc4c(C(C)C)c(O)c(O)c(C=NCCCCC)c4c3O)c(O)c12`
Solution: 65.1
